system: MS2 coat protein; experiment: apparent KD of MS2 coat protein; designed switch direction (-1 OFF switch, 1 ON switch): -1; higher = weaker reporter binding; conditions: input ligand: FMN 200 uM
Entry flag: yes if apparent KD of MS2 coat protein reaches 30 nM; no if it does not.

[
  {
    "biopolymer.sequence": "AAAUGACAUUAGGAUAUAUAACGCGGCUGCCGCAUAGAAGGGAUGACUUGAGGAUCACCCAAGUGACCCAAGGA [Arcere] (Eterna round: R97, puzzle: Exclusion 6)",
    "label.value": "no"
  },
  {
    "biopolymer.sequence": "GGUCUUCAAGUCAGGAUAUCGUCUAAUCGAUCUGGCGAGAAGGGACAUGAGGAUCACCCAUGUCGUCUCAUCAG [Ex4 #16] (Eterna round: R97, puzzle: Brourd's mod of Exclusion 4)",
    "label.value": "no"
  },
  {
    "biopolymer.sequence": "CACAGACAUGAGGAUCACCCAUGUUAGGAUAUGGAUAGCCUGCCAAGAAUAGGCGCCUCCAGAAGGAACUGGGA [Eternabot (Original) Solution 36] (Eterna round: R97, puzzle: Exclusion 1)",
    "label.value": "yes"
  },
  {
    "biopolymer.sequence": "UACAAGCUUUGGCGAUCCUACAUGAGGAUCACCCAUGUGGGCCCGCCAGAGGCGGGCCCAUUUGCCCGUCUUGUGAA [Energy optimization 2] (Eterna round: R97, puzzle: Sensor, turn-off variant 1)",
    "label.value": "no"
  },
  {
    "biopolymer.sequence": "UGCUGACGAGGAUAUACAUGAGGAUCACCCAUGUUGGUCAAGCGACGAUAGUCGCAAUGUAGAAGGUGUCAGCA [E3/8-B1] (Eterna round: R97, puzzle: Exclusion 3)",
    "label.value": "yes"
  },
  {
    "biopolymer.sequence": "UUUUUUGGGCAAGGAUAUCCUGUGCGGUUCCGGCUCGUGUCUGUUACAUGAGGAUCACCCAUGUGGGAGAAGGUGCCUGCGGUU [Design 85] (Eterna round: R96, puzzle: Exclusion NG 2)",
    "label.value": "yes"
  }
]

---

test system: K4 kissing-loop RNA reporter; experiment: apparent KD of K4 kissing-loop reporter; higher = weaker reporter binding; conditions: Eterna round: R107; input ligand: theophylline 20 uM;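 further: bound reporter read as fluorescence of individual clusters on recovered sequencing chips by microscopy, with normalized cluster intensities fitted with a binding model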

[
  {
    "biopolymer.sequence": "GAUGAUCGCGCGGCCGCCACUGGUCAGUGAUGUUGACAUUAAUGCGCCGAGUAGUAACGGCGCAGCAGGACCGGGCGCGAUGUAG [#12 K4 Tryptophan B Same State]",
    "apparent KD of K4 kissing-loop reporter": "121 nM"
  },
  {
    "biopolymer.sequence": "CGCAGUGAUGUUGCUAUUGUUCUUGGUUAACGAGGACCGGUACGGCCGCCACUCGAUGUCUGUCUAGUCCAGUGUUUUUUUGAGU [whbob_EX_Tryp_A_t9]",
    "apparent KD of K4 kissing-loop reporter": "571 nM"
  },
  {
    "biopolymer.sequence": "CGCGCGCGCCGCAAGGCGCGCGCGAACGAUACCAGUAUAUAAGAAUACCCUUGGCAGCGUAAGAAAGCUAUAGUGAUGUUGUAGA [#19 K4 Theophylline A Same State]",
    "apparent KD of K4 kissing-loop reporter": "265 nM"
  },
  {
    "biopolymer.sequence": "ACCUAGUAGACAGGAUAUCACCAUGACAGUGAUGUUGUCAUGCUCGAUUUGAGGAAACUCAGAUCGUGAGAAGGGUCUAACGACU [FMN B SS t7]",
    "apparent KD of K4 kissing-loop reporter": "146 nM"
  },
  {
    "biopolymer.sequence": "CGUGCCCAGCCGGAUACCAGUGACCCGCUGGGAACCGCGGGCCCAGAGUGAUGUUCGGGACACCCUUGGCAGCCGCCUGGGCGGG [#2 Same State - Theophylline B Attempt #15 (HarryS)]",
    "apparent KD of K4 kissing-loop reporter": "512 nM"
  },
  {
    "biopolymer.sequence": "CGUUCCUCUGUCGAUACCAGCUUCAGUUGGCGGCCAGUGAUGUUGGUAUCGCCGAUGCCAAGCCCUUGGCAGCGACAUGAGAACC [Uslaessobi]",
    "apparent KD of K4 kissing-loop reporter": "105 nM"
  }
]

Where do these numbers come from? They come from the supplement of paper PMC9170038.
